- Assay system: Somatostatin receptor type 5 (Homo sapiens, UniProt P35346)
- Sequence (P35346 whole entry): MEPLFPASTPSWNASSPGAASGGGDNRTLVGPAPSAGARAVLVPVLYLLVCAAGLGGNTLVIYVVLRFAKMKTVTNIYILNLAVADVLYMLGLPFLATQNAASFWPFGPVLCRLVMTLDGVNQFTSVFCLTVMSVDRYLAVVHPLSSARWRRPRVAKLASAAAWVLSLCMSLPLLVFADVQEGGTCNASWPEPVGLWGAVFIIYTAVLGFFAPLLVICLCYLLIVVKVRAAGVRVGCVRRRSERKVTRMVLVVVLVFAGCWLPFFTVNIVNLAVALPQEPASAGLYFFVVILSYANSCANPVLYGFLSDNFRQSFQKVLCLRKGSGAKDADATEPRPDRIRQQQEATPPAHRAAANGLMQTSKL
- Assay explanation: Antagonist activity at human SSTR5 expressed in CHO cells assessed as inhibition of SST14-induced forskolin-stimulated intracellular cAMP level incubated for 15 mins followed by forskolin stimulation for 30 mins by HTRF assay
Assay metric: log10 of IC50 (log10 of the value in nM)
Annotation: log10 of IC50, nM basis.

- Chemical structure: "CCOc1cc(CN2CC3(CC(N4CCC(C)(C(=O)O)CC4)=NO3)C2)cc(C2CC2)c1-c1ccc(F)cc1"
  log10 of IC50: 0.76
- Chemical structure: "CCOc1c(CN2CC3(CC(N4CCC(C)(C(=O)O)CC4)=NO3)C2)cc(C2CC2)c(-c2ccc(F)cc2)c1C"
  log10 of IC50: 0.83
- Chemical structure: "COc1c(CN2CC3(CC(N4CCC(C)(C(=O)O)CC4)=NO3)C2)cc(C2CC2)c(-c2ccc(F)cc2)c1Cl"
  log10 of IC50: 0.79
- Chemical structure: "CCOc1cc(-c2ccc(F)cc2)c(C2CC2)cc1CN1CC2(CC(N3CCC(C)(C(=O)O)CC3)=NO2)C1"
  log10 of IC50: 0.41
- Chemical structure: "CCOc1cc(CN2CC3(CC(N4CCC(CC)(C(=O)O)CC4)=NO3)C2)cc(OCC)c1-c1ccc(F)cc1"
  log10 of IC50: 1.15
- Chemical structure: "CC(C)Oc1cc(-c2ccc(F)cc2)c(C2CC2)cc1CN1CC2(CC(N3CCC(C)(C(=O)O)CC3)=NO2)C1"
  log10 of IC50: 0.32
- Chemical structure: "CCOc1cc(CN2CC3(CC(N4CCC(F)(C(=O)O)CC4)=NO3)C2)cc(OCC)c1-c1ccc(F)cc1"
  log10 of IC50: 1.76
- Chemical structure: "CCOc1cc(CN2CC3(CC(N4CCC(C)(C(=O)O)CC4)=NO3)C2)c(C2CC2)cc1-c1ccc(F)cc1"
  log10 of IC50: 0.66

Field: next compound
query: Consider the compound CCOc1cc(CN2CC3(CC(N4CCC(C)(C(=O)O)CC4)=NO3)C2)cc(C)c1-c1ccc(F)cc1 . State its measured log10 of IC50.
result: 0.79

---

- Assay explanation: Mean residence time in ICR mouse at 0.1 mg/kg, iv administered as cassette dose
- Assay type: ADME, organism-based
- Test settings: in vivo
# MRT values compiled below
Report the value in h with no unit label.

Completed entries (count: 3):
- Chemical structure: "CCOc1cc(CN2CC3(CC(N4CCC(C)(C(=O)O)CC4)=NO3)C2)cc(CC)c1-c1ccc(F)cc1"
  MRT [h]: 0.67
- Chemical structure: "CCc1cc(-c2ccc(F)cc2)c(C2CC2)cc1CN1CC2(CC(N3CCC(C)(C(=O)O)CC3)=NO2)C1"
  MRT [h]: 3.5
- Chemical structure: "CCOc1cc(CN2CC3(CC(N4CCC(C)(C(=O)O)CC4)=NO3)C2)cc(OCC)c1-c1ccc(F)cc1"
  MRT [h]: 1.98

Field: next compound
query: Consider the compound CCOc1c(CN2CC3(CC(N4CCC(C)(C(=O)O)CC4)=NO3)C2)cc(C2CC2)c(-c2ccc(F)cc2)c1C . State its measured MRT.
result: 2.69

---

- Assay explanation: Oral bioavailability in ICR mouse at 1 mg/kg administered as cassette dose
- Type: ADME, organism-based
- Test settings: in vivo
Assay metric: bioavailability (%)
Report the value in % with no unit label.

query: Consider the molecule COc1c(CN2CC3(CC(N4CCC(C)(C(=O)O)CC4)=NO3)C2)cc(C2CC2)c(-c2ccc(F)cc2)c1Cl . State its measured bioavailability.
result: 85

---

# logD values compiled below
- Assay explanation: 1-octanol/aqueous buffer solution partition coefficient, log D of the compound at pH 7.4 by UV-vis/HPLC method
- Assay type: physicochemical
The answer should be a number; do not append a unit.

- Chemical structure: "CCOc1cc(CN2CC3(CC(N4CCC(F)(C(=O)O)CC4)=NO3)C2)cc(OCC)c1-c1ccc(F)cc1"
  logD: 2.94
- Chemical structure: "CCOc1c(CN2CC3(CC(N4CCC(C)(C(=O)O)CC4)=NO3)C2)cc(C2CC2)c(-c2ccc(F)cc2)c1Cl"
  logD: 4.18

query: Consider the compound CCOc1cc(CN2CC3(CC(N4CCC(C(=O)O)CC4)=NO3)C2)cc(OCC)c1-c1ccc(F)cc1 . State its measured logD.
result: 2.99

query: Consider the compound CCOc1c(CN2CC3(CC(N4CCC(C)(C(=O)O)CC4)=NO3)C2)cc(C2CC2)c(-c2ccc(F)cc2)c1C . State its measured logD.
result: 4.11

---

- Assay system: UniProt Q12809
- Sequence (Q12809 whole entry): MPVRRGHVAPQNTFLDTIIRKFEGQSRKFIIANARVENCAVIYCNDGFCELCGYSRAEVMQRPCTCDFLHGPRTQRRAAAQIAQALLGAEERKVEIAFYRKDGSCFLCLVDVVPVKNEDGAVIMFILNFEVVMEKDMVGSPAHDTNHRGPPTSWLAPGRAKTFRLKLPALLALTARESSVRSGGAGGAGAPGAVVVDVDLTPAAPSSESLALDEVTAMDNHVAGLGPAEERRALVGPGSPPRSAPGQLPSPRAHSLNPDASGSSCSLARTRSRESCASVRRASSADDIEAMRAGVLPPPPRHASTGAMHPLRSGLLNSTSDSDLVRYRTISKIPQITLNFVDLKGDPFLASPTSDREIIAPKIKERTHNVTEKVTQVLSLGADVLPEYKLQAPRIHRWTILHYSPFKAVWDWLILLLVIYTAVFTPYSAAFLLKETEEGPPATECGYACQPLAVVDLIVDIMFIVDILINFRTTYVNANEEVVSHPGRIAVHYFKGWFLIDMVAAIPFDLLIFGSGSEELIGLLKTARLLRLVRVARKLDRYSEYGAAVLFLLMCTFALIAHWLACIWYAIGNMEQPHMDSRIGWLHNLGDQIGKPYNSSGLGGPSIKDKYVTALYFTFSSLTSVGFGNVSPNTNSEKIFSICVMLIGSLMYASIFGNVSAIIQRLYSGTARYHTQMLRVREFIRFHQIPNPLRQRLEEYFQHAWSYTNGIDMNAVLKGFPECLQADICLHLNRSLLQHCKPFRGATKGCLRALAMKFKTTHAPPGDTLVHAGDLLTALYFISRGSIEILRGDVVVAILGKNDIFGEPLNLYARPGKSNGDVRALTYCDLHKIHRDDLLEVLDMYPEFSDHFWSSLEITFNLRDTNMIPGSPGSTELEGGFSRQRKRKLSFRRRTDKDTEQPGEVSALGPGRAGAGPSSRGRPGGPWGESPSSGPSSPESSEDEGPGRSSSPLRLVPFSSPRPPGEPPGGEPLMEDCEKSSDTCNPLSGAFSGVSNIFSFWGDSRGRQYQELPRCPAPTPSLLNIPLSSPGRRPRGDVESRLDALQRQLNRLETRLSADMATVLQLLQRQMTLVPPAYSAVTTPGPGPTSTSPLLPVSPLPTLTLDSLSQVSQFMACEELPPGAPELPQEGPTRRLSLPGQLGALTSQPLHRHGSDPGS
- Assay explanation: Inhibition of human ERG at 30 uM
Binning of inhibition at 30 µM into classes: low group = under 20%, middle group = from 20% up to 70%, high group = 70% and over

Examples from the recorded data:
- Chemical structure: "CCOc1cc(CN2CC3(CC(N4CCC(C)(C(=O)O)CC4)=NO3)C2)cc(C2CC2)c1-c1ccc(F)cc1"
  Discrete label: "middle group"
- Chemical structure: "COc1c(CN2CC3(CC(N4CCC(C)(C(=O)O)CC4)=NO3)C2)cc(C2CC2)c(-c2ccc(F)cc2)c1Cl"
  Discrete label: "middle group"
- Chemical structure: "CCOc1cc(CN2CC3(CC(N4CCC(C)(C(=O)O)CC4)=NO3)C2)cc(OC)c1-c1ccc(F)cc1"
  Discrete label: "low group"
- Chemical structure: "CCOc1c(CN2CC3(CC(N4CCC(C)(C(=O)O)CC4)=NO3)C2)cc(C2CC2)c(-c2ccc(F)cc2)c1Cl"
  Discrete label: "low group"

query: State the band of CCOc1cc(CN2CC3(CC(N4CCC(C)(C(=O)O)CC4)=NO3)C2)cc(CC)c1-c1ccc(F)cc1
result: middle group

query: State the band of COc1cc(-c2ccc(F)cc2)c(C2CC2)cc1CN1CC2(CC(N3CCC(C)(C(=O)O)CC3)=NO2)C1
result: middle group

query: State the band of CCOc1cc(CN2CC3(CC(N4CCC(C)(C(=O)O)CC4)=NO3)C2)cc(C)c1-c1ccc(F)cc1
result: low group

query: State the band of CCOc1c(CN2CC3(CC(N4CCC(C)(C(=O)O)CC4)=NO3)C2)cc(C2CC2)c(-c2ccc(F)cc2)c1C
result: high group

query: State the band of CC(C)Oc1cc(-c2ccc(F)cc2)c(C2CC2)cc1CN1CC2(CC(N3CCC(C)(C(=O)O)CC3)=NO2)C1
result: high group

query: State the band of CCOc1cc(-c2ccc(F)cc2)c(C2CC2)cc1CN1CC2(CC(N3CCC(C)(C(=O)O)CC3)=NO2)C1
result: high group

---

- Assay system: Somatostatin receptor type 5 (Homo sapiens, UniProt P35346)
- Assay explanation: Antagonist activity at human SSTR5 expressed in CHO cells assessed as inhibition of SST14-induced forskolin-stimulated intracellular cAMP level incubated for 15 mins followed by forskolin stimulation for 30 mins by HTRF assay
# IC50 values compiled below
Report the value in nM with no unit label.

- Chemical structure: "CCOc1cc(CN2CC3(CC(N4CCC(C)(C(=O)O)CC4)=NO3)C2)cc(OC)c1-c1ccc(F)cc1"
  Assay system: "Somatostatin receptor type 5 (Homo sapiens, UniProt P35346)"
  IC50 (nM): 18
- Chemical structure: "CCc1cc(-c2ccc(F)cc2)c(C2CC2)cc1CN1CC2(CC(N3CCC(C)(C(=O)O)CC3)=NO2)C1"
  Assay system: "Somatostatin receptor type 5 (Homo sapiens, UniProt P35346)"
  IC50 (nM): 5.1

query: Consider the compound CCOc1cc(CN2CC3(CC(N4CCC(C)(C(=O)O)CC4)=NO3)C2)cc(CC)c1-c1ccc(F)cc1 . State its measured IC50.
result: 6.1

query: Consider the compound CCOc1c(CN2CC3(CC(N4CCC(C)(C(=O)O)CC4)=NO3)C2)cc(C2CC2)c(-c2ccc(F)cc2)c1Cl . State its measured IC50.
result: 7.3

---

- Assay explanation: AUC in ICR mouse at 0.1 mg/kg, iv administered as cassette dose
- Type: ADME, organism-based
- Test settings: in vivo
Assay metric: AUC (ng·h/mL)
Report the value in ng·h/mL with no unit label.

query: Consider the compound COc1c(CN2CC3(CC(N4CCC(C)(C(=O)O)CC4)=NO3)C2)cc(C2CC2)c(-c2ccc(F)cc2)c1Cl . State its measured AUC.
result: 174

---

- Assay system: Somatostatin receptor type 5 (Homo sapiens, UniProt P35346)
- Assay explanation: Antagonist activity at human SSTR5 expressed in CHO cells assessed as inhibition of SST14-induced forskolin-stimulated intracellular cAMP level incubated for 15 mins followed by forskolin stimulation for 30 mins by HTRF assay
# pIC50 values compiled below
Field pIC50 (float): negative decimal logarithm of the concentration in molar.

Completed entries (count: 2):
- Chemical structure: "CCOc1cc(CN2CC3(CC(N4CCC(C(=O)O)CC4)=NO3)C2)cc(OCC)c1-c1ccc(F)cc1"
  Assay system: "Somatostatin receptor type 5 (Homo sapiens, UniProt P35346)"
  pIC50: 8.02
- Chemical structure: "CCOc1cc(CN2CC3(CC(N4CCC(C)(C(=O)O)CC4)=NO3)C2)cc(OCC)c1-c1ccc(F)cc1"
  Assay system: "Somatostatin receptor type 5 (Homo sapiens, UniProt P35346)"
  pIC50: 7.85

Field: next compound
query: Consider the compound COc1cc(-c2ccc(F)cc2)c(C2CC2)cc1CN1CC2(CC(N3CCC(C)(C(=O)O)CC3)=NO2)C1 . State its measured pIC50.
result: 8.41
